Hey, just so you know, these numbers are from ChEMBL document CHEMBL1649229.

protocol.notes: Cmax in serum of human infected with methicillin-resistant Staphylococcus aureus HUSA 304 at 10 mg/kg/day, […]
Assay type: ADME, organism-based
Parameters: dose 10 mg/kg/day, route intraperitoneal
value.type: Cmax (µg/mL)
Field: numeric (µg/mL). Do not append units.

Record request: Cmax value, item CCCCCCCCCC(=O)N[C@@H](Cc1c[nH]c2ccccc12)C(=O)N[C@H](CC(N)=O)C(=O)N[C@@H](CC(=O)O)C(=O)N[C@@H]1C(=O)NCC(=O)N[C@@H](CCCN)C(=O)N[C@@H](CC(=O)O)C(=O)N[C@H](C)C(=O)N[C@@H](CC(=O)O)C(=O)NCC(=O)N[C@H](CO)C(=O)N[C@@H]([C@H](C)CC(=O)O)C(=O)N[C@@H](CC(=O)c2ccccc2N)C(=O)O[C@@H]1C 130
